biological target: human PAH with the R408W mutation (Homo sapiens, UniProt P00439, R408W); construct: expressed in transfected cells; experiment: Cell Based Phenylalanine Flux Assay; conditions: A375 cells expressing human R408W PAH; 24 hrs compound incubation; 13C-Tyrosine by LC-MS; average where tested multiple times; read-out: AC50
Assign AC50 to each entry below.

# example entries with known answers
O=C(c1nnc(-c2ncccc2F)o1)N1CCc2[nH]cnc2[C@H]1c1cc2c(C(F)(F)F)cccn2n1	< 500 nM
COc1cccn2nc([C@H]3c4nc[nH]c4CCN3C(=O)c3nnc(-c4ccn(C(F)(F)F)n4)o3)cc12	> 5000 nM
COc1cccn2nc([C@H]3c4nc[nH]c4CCN3C(=O)c3nnc(C(C)(C)F)o3)cc12	> 5000 nM
O=C(c1nnc(-c2ccn(C(F)F)n2)o1)N1CCc2[nH]cnc2[C@@H]1c1cc2ccccn2n1	> 5000 nM
Cc1cccn2nc([C@@H]3c4nc[nH]c4CCN3C(=O)c3nc(C(F)(F)F)nn3C)cc12	< 500 nM

Hi! Can you tell me AC50 for each of these molecules?
1. Cc1nc(C(C)(C)F)oc1C(=O)N1CCc2[nH]cnc2[C@@H]1c1cc2ccccn2n1
2. CC(F)(F)c1ncc(C(=O)N2CCc3[nH]cnc3[C@H]2c2cc3ccccn3n2)s1

A)
1: 500 to 1000 nM; 2: < 500 nM

Hi! Can you tell me AC50 for each of these molecules?
1. CC(O)c1nc(Br)c(C(=O)N2CCc3[nH]cnc3[C@H]2c2cc3ccccn3n2)o1 (single isomer, unassigned) [Example 996]
2. O=C(c1nnc(-c2ncccc2F)o1)N1CCc2[nH]cnc2[C@H]1c1cc2cccc(Cl)n2n1
3. O=C(c1nnc(-c2ccn(C(F)(F)F)n2)o1)N1CCc2[nH]cnc2[C@@H]1c1cc2c(OC(F)(F)F)cccn2n1
4. O=C(c1nnc(-c2ccccn2)o1)N1CCc2[nH]cnc2[C@@H]1c1cc2ccccn2n1
5. Cc1cccn2nc([C@H]3c4nc[nH]c4CCN3C(=O)c3oc([C@@H](C)O)nc3C(F)F)cc12
6. CC(C)(O)c1nc(Cl)c(C(=O)N2CCc3[nH]cnc3[C@H]2c2cc3c(Cl)cccn3n2)o1
7. O=C(c1cnn2ccccc12)N1CCc2[nH]cnc2[C@@H]1c1cc2ccccn2n1

A)
< 500 nM
< 500 nM
> 5000 nM
> 5000 nM
1000 to 5000 nM
< 500 nM
> 5000 nM

Q) Quick one: AC50 for O=C(c1oc(-c2ccccn2)nc1C(F)F)N1CCc2[nH]cnc2[C@H]1c1cc2ccccn2n1 ?
A) < 500 nM

====

Target: human PAH with the R408W mutation (Homo sapiens, UniProt P00439, R408W)
Construct: expressed in transfected cells
Sequence (P00439 1-452 R408W): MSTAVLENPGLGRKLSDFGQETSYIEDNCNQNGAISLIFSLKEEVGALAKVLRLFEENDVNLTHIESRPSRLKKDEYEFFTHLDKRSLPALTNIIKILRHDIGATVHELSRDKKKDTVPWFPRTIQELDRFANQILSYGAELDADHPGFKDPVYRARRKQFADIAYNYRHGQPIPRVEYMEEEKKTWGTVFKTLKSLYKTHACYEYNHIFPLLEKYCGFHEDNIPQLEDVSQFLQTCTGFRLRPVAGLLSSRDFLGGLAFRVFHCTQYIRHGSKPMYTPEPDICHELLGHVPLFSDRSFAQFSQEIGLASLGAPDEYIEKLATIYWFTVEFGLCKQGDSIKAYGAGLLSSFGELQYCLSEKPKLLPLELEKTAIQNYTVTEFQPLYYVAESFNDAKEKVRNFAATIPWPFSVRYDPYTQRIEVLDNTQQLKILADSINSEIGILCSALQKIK
Assay: Cell Based Phenylalanine Flux Assay
Conditions: A375 cells expressing human PAH R408W; 24 hrs compound incubation; 13C-Tyrosine by LC-MS; average where tested multiple times; read-out: AC50
READOUT LABEL: AC50

# example entries with known answers
Nc1cnc(N2CCc3[nH]cnc3[C@@H]2c2cc3c(Cl)cccn3n2)nc1	> 5000 nM
CC(C)c1cccn2nc([C@@H]3c4nc[nH]c4CCN3C(=O)c3nnc(-c4cnn(C)c4)o3)cc12	< 500 nM
Cn1ccc(-c2ncc(C(=O)N3CCc4[nH]cnc4[C@@H]3c3cc4c(F)cccn4n3)o2)n1	> 5000 nM

Hi! Can you tell me AC50 for each of these molecules?
1. FC(F)(F)c1nnc(N2CCc3[nH]cnc3[C@H]2c2cc3cccc(Cl)n3n2)o1
2. Cn1cc(-c2ncc(C(=O)N3CCc4[nH]cnc4[C@H]3c3cc4c(C(F)(F)F)cccn4n3)o2)cn1
3. Cc1nnc(N2CCc3[nH]cnc3[C@H]2c2cc3c(C(C)C)cccn3n2)o1
4. CC(C)c1cccn2nc([C@H]3c4nc[nH]c4CCN3c3nnc(C(F)F)o3)cc12
5. O=C(c1nnc(-c2ccccn2)o1)N1CCc2[nH]cnc2[C@H]1c1cc2c(Br)cccn2n1

A)
1000 to 5000 nM
1000 to 5000 nM
< 500 nM
> 5000 nM
< 500 nM

====

target: human PAH with the R408W mutation (Homo sapiens, UniProt P00439, R408W); construct: expressed in transfected cells; assay: Cell Based Phenylalanine Flux Assay; details: A375 cells expressing human R408W PAH; 24 hrs compound incubation; 13C-Tyrosine by LC-MS; average where tested multiple times; read-out: AC50
READOUT LABEL: AC50

# example entries with known answers
COc1ccc(-c2nnc(C(=O)N3CCc4[nH]cnc4[C@@H]3c3cc4cccc(C(F)(F)F)n4n3)o2)cn1	1 to 5 µM
O=C(c1cnn2ccccc12)N1CCc2[nH]cnc2[C@H]1c1cc2ccccn2n1	0.5 to 1 µM
Cc1cc(C(=O)N2CCc3[nH]cnc3[C@H]2c2cc3ccccn3n2)n(C)n1	< 0.5 µM
O=C(c1nnc(-c2cnn(C(F)F)c2)o1)N1CCc2[nH]cnc2[C@H]1c1cc2ccccn2n1	1 to 5 µM
Cc1nnc(C(=O)N2CCc3[nH]cnc3[C@H]2c2cc3c(C)cccn3n2)o1	0.5 to 1 µM
O=C(c1nnc(-c2cnn(C(F)(F)F)c2)o1)N1CCc2[nH]cnc2[C@H]1c1cc2c(F)cccn2n1	0.5 to 1 µM
FC(F)(F)c1cccc2cc([C@H]3c4nc[nH]c4CCN3c3ncccn3)nn12	1 to 5 µM

Here is the next item to consider.
Q) Quick one: AC50 for Cc1cc(F)ccc1-c1nnc(C(=O)N2CCc3[nH]cnc3[C@H]2c2cc3ccccn3n2)o1 ?
A) < 0.5 µM

====

target: human PAH with the R408W mutation (Homo sapiens, UniProt P00439, R408W); construct: expressed in transfected cells; test: Cell Based Phenylalanine Flux Assay; details: A375 cells expressing human PAH R408W; 24 hrs compound incubation; 13C-Tyrosine by LC-MS; average where tested multiple times; read-out: AC50;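 also: after compound treatment, cells received sepiapterin plus isotope-labelled Phenylalanine for 4 hours, then labelled Tyrosine in the medium was quantified, 10-point 2-fold dilution series run in duplicate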
READOUT LABEL: AC50

O=C(c1ocnc1C(F)F)N1CCc2[nH]cnc2[C@@H]1c1cc2cc(F)ccn2n1	1000 to 5000 nM
FC(F)c1cccn2nc([C@H]3c4nc[nH]c4CCN3c3ccccn3)cc12	> 5000 nM
Cc1cccn2nc([C@@H]3c4nc[nH]c4CCN3c3nnc(-c4cnccn4)o3)cc12	500 to 1000 nM
O=C(c1nnc(C2CC2)o1)N1CCc2[nH]cnc2[C@@H]1c1cc2c(C3CC3)cccn2n1	> 5000 nM
O=C([C@H]1CC1(F)F)N1CCc2[nH]cnc2[C@H]1c1cc2c(F)cccn2n1	1000 to 5000 nM
Cc1cccc2cc([C@H]3c4nc[nH]c4CCN3C(=O)c3nnc(-c4cn(C)cn4)o3)nn12	> 5000 nM
Cn1nc(C2CC2)nc1C(=O)N1CCc2[nH]cnc2[C@H]1c1cc2cccc(C(F)(F)F)n2n1	1000 to 5000 nM
FC(F)(F)c1nnc(N2CCc3[nH]cnc3[C@@H]2c2cc3c(C4CC4)cccn3n2)o1	> 5000 nM
Cc1ccc2cc([C@@H]3c4nc[nH]c4CCN3C(=O)c3nnc(-c4cnn(C)c4)o3)nn2c1	1000 to 5000 nM
O=C(c1ocnc1C1CC1)N1CCc2[nH]cnc2[C@H]1c1cc2c(F)cccn2n1	< 500 nM

Hi! Can you tell me AC50 for each of these compounds?
1. FC(F)(F)c1cccn2nc([C@@H]3c4nc[nH]c4CCN3c3nnc(C4CCC4)o3)cc12
2. O=C(c1cnc(-c2ccccn2)o1)N1CCc2[nH]cnc2[C@@H]1c1cc2c(C(F)(F)F)cccn2n1
3. Cn1ccc(-c2nnc(C(=O)N3CCc4[nH]cnc4[C@H]3c3cc4c(Br)cccn4n3)o2)n1
4. FC(F)c1cccn2nc([C@@H]3c4nc[nH]c4CCN3c3cnccn3)cc12
5. Cc1cccn2nc([C@@H]3c4nc[nH]c4CCN3C(=O)c3oc(-c4cnn(C)c4)nc3C3CC3)cc12
6. O=C(c1nnc(-c2ccccn2)o1)N1CCc2[nH]cnc2[C@@H]1c1cc2c(C3CC3)cccn2n1

A)
1: 1000 to 5000 nM; 2: > 5000 nM; 3: < 500 nM; 4: < 500 nM; 5: < 500 nM; 6: > 5000 nM

Hi! Can you tell me AC50 for each of these compounds?
1. CC(C)c1cccn2nc([C@@H]3c4nc[nH]c4CCN3c3ncc(C(F)(F)F)cn3)cc12
2. O=C(c1oc(-c2ccccn2)nc1C1CC1)N1CCc2[nH]cnc2[C@H]1c1cc2c(F)cccn2n1
3. COc1ccc2c(C(=O)N3CCc4[nH]cnc4[C@@H]3c3cc4c(C)cccn4n3)cnn2c1
4. CC(C)c1cccn2nc([C@@H]3c4nc[nH]c4CCN3C(=O)c3nnc(C4CC4)o3)cc12
5. O=C(c1nnc(-c2ccc(F)cn2)o1)N1CCc2[nH]cnc2[C@@H]1c1cc2ccccn2n1
6. CC(C)c1cccn2nc([C@@H]3c4nc[nH]c4CCN3c3nnc(C4CC4)o3)cc12
7. CC(F)(F)c1nnc(N2CCc3[nH]cnc3[C@H]2c2cc3c(C(F)F)cccn3n2)o1

A)
["< 500 nM", "< 500 nM", "> 5000 nM", "< 500 nM", "> 5000 nM", "< 500 nM", "< 500 nM"]

Hi! Can you tell me AC50 for each of these compounds?
1. Cn1cc(-c2nnc(C(=O)N3CCc4[nH]cnc4[C@@H]3c3cc4c(C5CC5)cccn4n3)o2)cn1
2. Cc1ncccc1-c1nnc(N2CCc3[nH]cnc3[C@H]2c2cc3c(Cl)cccn3n2)o1
3. Cc1cccn2nc([C@H]3c4nc[nH]c4CCN3C(=O)c3nnc(-c4ccn(C)n4)s3)cc12
4. O=C(c1nnc(C2CC2)s1)N1CCc2[nH]cnc2[C@@H]1c1cc2c(F)cccn2n1
5. Cc1cccnc1-c1nnc(N2CCc3[nH]cnc3[C@@H]2c2cc3ccccn3n2)o1
6. COCc1ccc2c(C(=O)N3CCc4[nH]cnc4[C@@H]3c3cc4c(C)cccn4n3)cnn2c1
7. O=C(c1nnc(-c2ccccn2)s1)N1CCc2[nH]cnc2[C@H]1c1cc2ccccn2n1
8. FC(F)c1cccc2cc([C@@H]3c4nc[nH]c4CCN3c3nnc(C(F)(F)F)o3)nn12

A)
> 5000 nM
< 500 nM
> 5000 nM
> 5000 nM
> 5000 nM
> 5000 nM
< 500 nM
1000 to 5000 nM
